Quick list: viability, T/C per entry.
Test system: 422866-222-R5-J1-PDC complex spheroids viability;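 note: spheroids exposed to compounds for 7 days; 100% = DMSO vehicle control viability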
assayName: Anticancer human tumor 422866-222-R5-J1-PDC patient-derived pancreatic adenocarcinoma cell line growth inhibition [RAS]
statedConditions: second compound 0.000949 µM; first compound 0.000949 µM; hits give low values
Report the value in % with no unit label.

molecule="CC1(C)CCC(Nc2ncc(C(F)(F)F)c(-c3c[nH]c4c(P(C)(C)=O)c(C#N)ccc34)n2)CN1 (centres undefined) + CCn1c(-c2cccnc2C(C)OC)c2c3cc(ccc31)N1CCOC(CC(NC(=O)C(C(C)C)N(C)C(=O)C3(F)CCN(C(=O)C#CC(C)(C)N(C)C)CC3)C(=O)N3CCCC(N3)C(=O)OCC(C)(C)C2)C1" numericreadout=27.9

Ask | Read the entry CC1(C)CCC(Nc2ncc(C(F)(F)F)c(-c3c[nH]c4c(P(C)(C)=O)c(C#N)ccc34)n2)CN1 (centres undefined) + CCn1c(-c2cc(N3CCN(C)CC3)cnc2C(C)OC)c2c3cc(ccc31)-c1csc(n1)CC(NC(=O)C1CC1C)C(=O)N1CCCC(N1)C(=O)OCC(C)(C)C2 and write its reported viability, T/C.
Reply | 30.6

Ask | Read the entry CCc1c2c(nc3ccc(O)cc13)-c1cc3c(c(=O)n1C2)COC(=O)[C@]3(O)CC + CCn1c(-c2cccnc2C(C)OC)c2c3cc(ccc31)N1CCOC(CC(NC(=O)C(C(C)C)N(C)C(=O)C3(F)CCN(C(=O)C#CC(C)(C)N(C)C)CC3)C(=O)N3CCCC(N3)C(=O)OCC(C)(C)C2)C1 and write its reported viability, T/C.
Reply | 28.2

Ask | Read the entry CCc1c2c(nc3ccc(O)cc13)-c1cc3c(c(=O)n1C2)COC(=O)[C@]3(O)CC + CCn1c(-c2cc(N3CCN(C)CC3)cnc2C(C)OC)c2c3cc(ccc31)-c1csc(n1)CC(NC(=O)C1CC1C)C(=O)N1CCCC(N1)C(=O)OCC(C)(C)C2 and write its reported viability, T/C.
Reply | 25.3

This collection of values is drawn from PubChem BioAssay AID2060901.
